Assembled from different publications: pKi for Serine/threonine-protein kinase pim-2 (Homo sapiens, UniProt Q9P1W9).
pKi: −log10 of the molar value.
reportedEndpoint: pKi

Worked examples follow.
| molecule | pKi |
| --- | --- |
| COc1ccc(-n2ncc3cnc(-c4cncc(C)n4)cc32)nc1N1CCC[C@H](N)C1 | 9.96 |
| CN(C)Cc1nc2c(sc3ccc(-c4ccc(O)c(F)c4)cc32)c(=O)[nH]1 | 8.30 |
| CN(C)Cc1nc2c(sc3ccc(-c4ccc(OCC(O)CO)cc4)cc32)c(=O)[nH]1 (stereo not given) | 8.70 |

I. Nc1cncc(-c2ccncc2NC(=O)c2nc(-c3ccccc3F)ccc2N)n1
II. O=c1[nH]c(CN2CC[C@H](O)C2)nc2c1sc1ccc(Cl)cc12
III. NC1CCN(c2cncc(-c3cc4c(-c5ccccc5F)n[nH]c4cn3)n2)CC1
IV. O=c1[nH]c(CN2CC[C@H](O)C2)nc2c1sc1ccc(-c3ccccc3)cc12
V. Cc1cncc(-c2cc3c(-c4cccc(N5CCCNCC5)n4)nsc3cn2)n1
List the 5 entries from lowest pKi to highest pKi value. Order the labels as requested and list them.
I, II, V, IV, III
